Biological target: human immunoglobulin IgG
Assay: SPR, binder on SA chip, 1 uM IgG, dissociation in 10 mM sodium acetate pH 4.0
API: label(entry) gives Met if the entry's ratio of the remaining amount of antibody by SPR sensorgram at pH 4.0 is strictly smaller than 90%; on equality or larger values it gives Not met.

binder | class_assignment
OXADac-PG17 (designed binder) MGAGTPVTAPLAGTIWKVLASEGQTVAAGEVLLILEAMKMETEIRAAQAGTVRGIAVKAGDAVAVGDTLMTLAGSGSDLYDDDDKGIITSLYKKAGSAAAPFTDTYKLILNGKRLKGETITEAVDAATAEKVFKQYANEHGVDGEWTYDPETKTFTVTE | Met

Ask: Criterion: ratio of the remaining amount of antibody by SPR sensorgram at pH 4.0 strictly below 90%. Is it met by OXADac-PG13 (designed binder) MGAGTPVTAPLAGTIWKVLASEGQTVAAGEVLLILEAMKMETEIRAAQAGTVRGIAVKAGDAVAVGDTLMTLAGSGSDLYDDDDKGIITSLYKKAGSAAAPFTDTYKLILNGKTLKGETTTEAVDAATAEKVFKQYANEHGVHGEWTYDPETKTFTVTE ?
Result: Met

Ask: Another binder to look at: OXADac-PG14 (designed binder) MGAGTPVTAPLAGTIWKVLASEGQTVAAGEVLLILEAMKMETEIRAAQAGTVRGIAVKAGDAVAVGDTLMTLAGSGSDLYDDDDKGIITSLYKKAGSAAAPFTDTYKLILNGKTLKGETTTEAVDAATAEKVFKQYANEHGVDGHWTYDPETKTFTVTE
Result: Met

Ask: Same thing, different binder: OXADac-PG07 (designed binder) MGAGTPVTAPLAGTIWKVLASEGQTVAAGEVLLILEAMKMETEIRAAQAGTVRGIAVKAGDAVAVGDTLMTLAGSGSDLYDDDDKGIITSLYKKAGSAAAPFTDTYKLILNGKTLKGETTTEAVDAATAEKVFKQYANEHGVDGEWTYDPETKTFTVTE
Result: Not met

Ask: Queued: OXADac-PG16 (designed binder) MGAGTPVTAPLAGTIWKVLASEGQTVAAGEVLLILEAMKMETEIRAAQAGTVRGIAVKAGDAVAVGDTLMTLAGSGSDLYDDDDKGIITSLYKKAGSAAAPFTDTYKLILNGKTLKGETITEAVDAATAEKVFKQYANEHGVDGEWTYDPETKTFTVTE
Result: Not met

Ask: Ok, now OXADac-PG20 (designed binder) MGAGTPVTAPLAGTIWKVLASEGQTVAAGEVLLILEAMKMETEIRAAQAGTVRGIAVKAGDAVAVGDTLMTLAGSGSDLYDDDDKGIITSLYKKAGSAAAPFTDTYKLILNGKTLKGETTTEAVHAATAEKVFKHYANEHGVHGHWTYDPETKTFTVTE
Result: Met

Ask: Now the binder OXADac-PG19 (designed binder) MGAGTPVTAPLAGTIWKVLASEGQTVAAGEVLLILEAMKMETEIRAAQAGTVRGIAVKAGDAVAVGDTLMTLAGSGSDLYDDDDKGIITSLYKKAGSAAAPFTDTYKLILNGKTLKGETTTEAVDAATAEKVFKHYANEHGVHGHWTYDPETKTFTVTE
Result: Met
